Some compounds, each annotated with its measured degree of damage to the plants (% damage vs untreated control), Soya beans.
test system: Soya beans; experiment: Pre-emergence test/Greenhouse, Soya beans; format: in vivo; conditions: in vivo
experimental endpoint: degree of damage to the plants (% damage vs untreated control), Soya beans (%)

[[record]]
compound = "C=CCOc1nn(C(=O)NS(=O)(=O)c2c(C)cccc2C(=O)OC)c(=O)n1C [Example 148]"
test_system = "Soya beans"
numeric_value = 0

[[record]]
compound = "CCCc1nn(C(=O)[N-]S(=O)(=O)c2c(C)cccc2C(=O)OC)c(=O)n1C.[Na+] [Example 154]"
test_system = "Soya beans"
numeric_value = 0

[[record]]
compound = "COC(=O)c1cccc(Cl)c1S(=O)(=O)NC(=O)n1nc(SC)n(C)c1=O [Example 130]"
test_system = "Soya beans"
numeric_value = 0

[[record]]
compound = "Cc1nc(C(=O)NS(=O)(=O)c2c(C)cccc2C(=O)OC(C)C)no1 [Example 12]"
test_system = "Soya beans"
numeric_value = 0

[[record]]
compound = "CSc1nn(C(=O)NS(=O)(=O)c2c(C)cccc2C(=O)OC(C)C)c(=O)n1C [Example 8]"
test_system = "Soya beans"
numeric_value = 0

[[record]]
compound = "CCCOc1nn(C(=O)NS(=O)(=O)c2c(C)cccc2C(=O)OC(C)C)c(=O)n1C [Example 17]"
test_system = "Soya beans"
numeric_value = 0

[[record]]
compound = "CCSc1nn(C(=O)NS(=O)(=O)c2c(C)cccc2C(=O)OC(C)C)c(=O)n1C [Example 42]"
test_system = "Soya beans"
numeric_value = 10

[[record]]
compound = "CCCc1nn(C(=O)NS(=O)(=O)c2c(C)csc2C(=O)OC)c(=O)n1OC [Example 39]"
test_system = "Soya beans"
numeric_value = 20

